# SYSTEM: MPO (Homo sapiens, UniProt P05164)
# Sequence (P05164 49-745): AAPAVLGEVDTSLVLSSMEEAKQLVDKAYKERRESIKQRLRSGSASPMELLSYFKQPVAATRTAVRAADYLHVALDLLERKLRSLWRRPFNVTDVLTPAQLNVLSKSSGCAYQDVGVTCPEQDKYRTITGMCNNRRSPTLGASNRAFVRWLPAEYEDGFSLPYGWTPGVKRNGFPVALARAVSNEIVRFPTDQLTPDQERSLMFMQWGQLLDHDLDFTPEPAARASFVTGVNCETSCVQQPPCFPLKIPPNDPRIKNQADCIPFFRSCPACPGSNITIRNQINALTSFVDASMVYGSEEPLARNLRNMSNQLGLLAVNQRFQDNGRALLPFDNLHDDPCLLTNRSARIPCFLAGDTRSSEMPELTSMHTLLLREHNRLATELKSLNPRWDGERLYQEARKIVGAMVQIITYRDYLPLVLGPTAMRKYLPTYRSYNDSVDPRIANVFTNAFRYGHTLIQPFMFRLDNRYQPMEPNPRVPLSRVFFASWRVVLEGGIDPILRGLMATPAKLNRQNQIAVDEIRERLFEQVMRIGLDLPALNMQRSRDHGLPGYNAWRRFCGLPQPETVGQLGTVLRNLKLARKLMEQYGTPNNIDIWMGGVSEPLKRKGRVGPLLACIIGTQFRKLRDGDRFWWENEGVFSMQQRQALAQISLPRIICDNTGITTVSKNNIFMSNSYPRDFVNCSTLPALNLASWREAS
# ASSAY_NOTES: Effects of potential interfering substances in WBC (MPO, PS-1) assay
# Assay type: biochemical
# CONDITION_DESCRIPTION: highest tested: uric acid 1 mg/mL, ascorbic acid 100 μg/mL, bilirubin 50 μg/mL, trolox 1 mg/mL

COMPOUND | Interference (in words)
Cc1c(C)c2c(c(C)c1O)CCC(C)(C(=O)O)O2 (stereo not shown) | None
O=c1[nH]c(=O)c2[nH]c(=O)[nH]c2[nH]1 | None
O=C1O[C@H]([C@@H](O)CO)C(O)=C1O | None
C=CC1=C(C)/C(=C/c2[nH]c(Cc3[nH]c(/C=C4\NC(=O)C(C)=C4C=C)c(C)c3CCC(=O)O)c(CCC(=O)O)c2C)NC1=O | None

###

Measured S/N for Hb, listed per entry for reference.
# System: Hb
# ASSAY_NOTES: S/N ratios of different chemiluminescent substrates with Hb
# Assay type: biochemical, human
# CONDITION_DESCRIPTION: signal integrated over first five seconds

SMI | S/N for Hb
Nc1cccc2c(=O)[nH][nH]c(=O)c12 | 89
CCN(CCCCN)c1ccc2c(=O)[nH][nH]c(=O)c2c1 | 3
CN(C)c1ccc2ccc3c(=O)[nH][nH]c(=O)c3c2c1 | 589
Nc1ccc2c(=O)[nH][nH]c(=O)c2c1 | 3
